Give IC50 for every item shown.
test system: A375 cells; test: A375 cell proliferation inhibition test; assay type: cell-based; details: Homo sapiens, A-375; A375 cells, 72 h, values in text; read-out: IC50
Numbers only, in nM.

{"columns": ["smilesRepr", "IC50, nM"],
 "data": [
  ["CC=C1CN(S(=O)(=O)Nc2ccc(F)c(Oc3ccc4ncn(CC(F)F)c(=O)c4c3)c2C#N)C1", 0.66]
]}

For the 3 compounds below, give their IC50 values.
1. CC=C1CN(S(=O)(=O)Nc2ccc(F)c(Oc3ccc4ncn(CCF)c(=O)c4c3)c2C#N)C1
2. CC(F)=C1CN(S(=O)(=O)Nc2ccc(F)c(Oc3ccc4ncn(CC(F)F)c(=O)c4c3)c2C#N)C1
3. C=C1CN(S(=O)(=O)Nc2ccc(F)c(Oc3ccc4ncn(CC(F)F)c(=O)c4c3)c2C#N)C1

Ans.
1: 1.44; 2: 2.16; 3: 0.14
